# System: Enterococcus faecium
# method.summary: Antibacterial activity against vancomycin-sensitive Enterococcus faecium after 24 hrs by broth micro dilution assay
# Type: functional
Below, each of the compounds is paired with its reported MIC value.
Answer format: numeric, µM implied, no suffix.

Guide cases for MIC, answers given:
smi=CN[C@H](CC(C)C)C(=O)N[C@H]1C(=O)N[C@@H](CC(N)=O)C(=O)N[C@H]2C(=O)N[C@H]3C(=O)N[C@H](C(=O)N[C@H](C(=O)O)c4cc(O)cc(O)c4-c4cc3ccc4O)[C@H](O)c3ccc(c(Cl)c3)Oc3cc2cc(c3O)Oc2ccc(cc2Cl)[C@H]1O readout=MIC measured_number=1.8
smi=CN[C@H](CC(C)C)C(=O)N[C@H]1C(=O)N[C@@H](CC(N)=O)C(=O)N[C@H]2C(=O)N[C@H]3C(=O)N[C@H](C(=O)N[C@H](C(=O)NCCCCCCCCNC(=O)C(F)(F)F)c4cc(O)cc(O)c4-c4cc3ccc4O)[C@H](O)c3ccc(c(Cl)c3)Oc3cc2cc(c3O)Oc2ccc(cc2Cl)[C@H]1O readout=MIC measured_number=0.6
smi=CN[C@H](CC(C)C)C(=O)N[C@H]1C(=O)N[C@@H](CC(N)=O)C(=O)N[C@H]2C(=O)N[C@H]3C(=O)N[C@H](C(=O)N[C@H](C(=O)NCCC[N+](C)(C)CCCCCCCC[N+](C)(C)CCCNC(=O)C(F)(F)F)c4cc(O)cc(O)c4-c4cc3ccc4O)[C@H](O)c3ccc(c(Cl)c3)Oc3cc2cc(c3O)Oc2ccc(cc2Cl)[C@H]1O readout=MIC measured_number=0.2
smi=CCCCCCCCN(CCCNC(=O)[C@H]1NC(=O)[C@H]2NC(=O)[C@H](NC(=O)[C@@H]3NC(=O)[C@H](CC(N)=O)NC(=O)[C@H](NC(=O)[C@@H](CC(C)C)NC)[C@H](O)c4ccc(c(Cl)c4)Oc4cc3cc(c4O)Oc3ccc(cc3Cl)[C@H]2O)c2ccc(O)c(c2)-c2c(O)cc(O)cc21)CCCNC(=O)C(F)(F)F readout=MIC measured_number=0.4

Please look at the following compound next.
# MIC measured on Enterococcus faecium for item CN[C@@H](CC(C)C)C(=O)N[C@H]1C(=O)N[C@@H](CC(N)=O)C(=O)N[C@H]2C(=O)N[C@H]3C(=O)N[C@H](C(=O)N[C@@H](C(=O)O)c4cc(O)cc(O)c4-c4cc3ccc4O)[C@H](O)c3ccc(c(Cl)c3)Oc3cc2cc(c3O[C@H]2O[C@@H](CO)[C@H](O)[C@@H](O)[C@@H]2O[C@@H]2C[C@@](C)(N)[C@@H](O)[C@@H](C)O2)Oc2ccc(cc2Cl)[C@H]1O = 0.6

----------
Below, each of the molecules is paired with its reported MIC value.
# Tested on: Staphylococcus aureus
# method.summary: Antibacterial activity against methicillin-sensitive Staphylococcus aureus after 24 hrs by broth micro dilution assay
# Type: functional
Answer format: numeric, µM implied, no suffix.

Guide cases for MIC, answers given:
smi=CN[C@H](CC(C)C)C(=O)N[C@H]1C(=O)N[C@@H](CC(N)=O)C(=O)N[C@H]2C(=O)N[C@H]3C(=O)N[C@H](C(=O)N[C@H](C(=O)O)c4cc(O)cc(O)c4-c4cc3ccc4O)[C@H](O)c3ccc(c(Cl)c3)Oc3cc2cc(c3O)Oc2ccc(cc2Cl)[C@H]1O target_or_system="Staphylococcus aureus" measured_number=1
smi=CN[C@H](CC(C)C)C(=O)N[C@H]1C(=O)N[C@@H](CC(N)=O)C(=O)N[C@H]2C(=O)N[C@H]3C(=O)N[C@H](C(=O)N[C@H](C(=O)NCCCCCCCCNC(=O)C(F)(F)F)c4cc(O)cc(O)c4-c4cc3ccc4O)[C@H](O)c3ccc(c(Cl)c3)Oc3cc2cc(c3O)Oc2ccc(cc2Cl)[C@H]1O target_or_system="Staphylococcus aureus" measured_number=1

Noted for CN[C@@H](CC(C)C)C(=O)N[C@H]1C(=O)N[C@@H](CC(N)=O)C(=O)N[C@H]2C(=O)N[C@H]3C(=O)N[C@H](C(=O)N[C@@H](C(=O)O)c4cc(O)cc(O)c4-c4cc3ccc4O)[C@H](O)c3ccc(c(Cl)c3)Oc3cc2cc(c3O[C@H]2O[C@@H](CO)[C@H](O)[C@@H](O)[C@@H]2O[C@@H]2C[C@@](C)(N)[C@@H](O)[C@@H](C)O2)Oc2ccc(cc2Cl)[C@H]1O : its MIC reads 0.6

Noted for CCCCCCCCN(CCCNC(=O)[C@H]1NC(=O)[C@H]2NC(=O)[C@H](NC(=O)[C@@H]3NC(=O)[C@H](CC(N)=O)NC(=O)[C@H](NC(=O)[C@@H](CC(C)C)NC)[C@H](O)c4ccc(c(Cl)c4)Oc4cc3cc(c4O)Oc3ccc(cc3Cl)[C@H]2O)c2ccc(O)c(c2)-c2c(O)cc(O)cc21)CCCNC(=O)C(F)(F)F : its MIC reads 0.8

Noted for CN[C@H](CC(C)C)C(=O)N[C@H]1C(=O)N[C@@H](CC(N)=O)C(=O)N[C@H]2C(=O)N[C@H]3C(=O)N[C@H](C(=O)N[C@H](C(=O)NCCC[N+](C)(C)CCCCCCCC[N+](C)(C)CCCNC(=O)C(F)(F)F)c4cc(O)cc(O)c4-c4cc3ccc4O)[C@H](O)c3ccc(c(Cl)c3)Oc3cc2cc(c3O)Oc2ccc(cc2Cl)[C@H]1O : its MIC reads 1

----------
# Test system: Staphylococcus aureus
# method.summary: Antibacterial activity against methicillin-resistant Staphylococcus aureus ATCC 33591 after 24 hrs by broth micro dilution assay
# Assay type: functional
# measurement.conditions: ATCC 33591, 24 h
readout: MIC (µM)
Answer format: numeric, µM implied, no suffix.

compound=CN[C@@H](CC(C)C)C(=O)N[C@H]1C(=O)N[C@@H](CC(N)=O)C(=O)N[C@H]2C(=O)N[C@H]3C(=O)N[C@H](C(=O)N[C@@H](C(=O)O)c4cc(O)cc(O)c4-c4cc3ccc4O)[C@H](O)c3ccc(c(Cl)c3)Oc3cc2cc(c3O[C@H]2O[C@@H](CO)[C@H](O)[C@@H](O)[C@@H]2O[C@@H]2C[C@@](C)(N)[C@@H](O)[C@@H](C)O2)Oc2ccc(cc2Cl)[C@H]1O target_or_system="Staphylococcus aureus" unit_symbol=µM measured_number=0.7
compound="CN[C@H](CC(C)C)C(=O)N[C@H]1C(=O)N[C@@H](CC(N)=O)C(=O)N[C@H]2C(=O)N[C@H]3C(=O)N[C@H](C(=O)N[C@H](C(=O)O)c4cc(O)cc(O)c4-c4cc3ccc4O)[C@H](O)c3ccc(c(Cl)c3)Oc3cc2cc(c3O)Oc2ccc(cc2Cl)[C@H]1O [VANCOMYCIN AGLYCON]" target_or_system="Staphylococcus aureus" unit_symbol=µM measured_number=1
compound=CCCCCCCCN(CCCNC(=O)[C@H]1NC(=O)[C@H]2NC(=O)[C@H](NC(=O)[C@@H]3NC(=O)[C@H](CC(N)=O)NC(=O)[C@H](NC(=O)[C@@H](CC(C)C)NC)[C@H](O)c4ccc(c(Cl)c4)Oc4cc3cc(c4O)Oc3ccc(cc3Cl)[C@H]2O)c2ccc(O)c(c2)-c2c(O)cc(O)cc21)CCCNC(=O)C(F)(F)F target_or_system="Staphylococcus aureus" unit_symbol=µM measured_number=1
compound=CN[C@H](CC(C)C)C(=O)N[C@H]1C(=O)N[C@@H](CC(N)=O)C(=O)N[C@H]2C(=O)N[C@H]3C(=O)N[C@H](C(=O)N[C@H](C(=O)NCCC[N+](C)(C)CCCCCCCC[N+](C)(C)CCCNC(=O)C(F)(F)F)c4cc(O)cc(O)c4-c4cc3ccc4O)[C@H](O)c3ccc(c(Cl)c3)Oc3cc2cc(c3O)Oc2ccc(cc2Cl)[C@H]1O target_or_system="Staphylococcus aureus" unit_symbol=µM measured_number=1

Please look at the following compound next.
# MIC measured on Staphylococcus aureus for item CN[C@H](CC(C)C)C(=O)N[C@H]1C(=O)N[C@@H](CC(N)=O)C(=O)N[C@H]2C(=O)N[C@H]3C(=O)N[C@H](C(=O)N[C@H](C(=O)NCCCCCCCCNC(=O)C(F)(F)F)c4cc(O)cc(O)c4-c4cc3ccc4O)[C@H](O)c3ccc(c(Cl)c3)Oc3cc2cc(c3O)Oc2ccc(cc2Cl)[C@H]1O = 2

Every entry's value here was drawn from ChEMBL document CHEMBL3734666.
